# system-under-test: UniProt Q9NR97
# assay-name: hTLR8 cell assay (HEK-Blue hTLR8 reporter cells)
# assay-context: 24 hours, OD 650 nm
pEC50: −log10 of the molar value.
// reported pEC50 for each item listed

# count of solved cases: 6
CCOCc1nc2c(N)nc3cc(Cc4ccc(C(=O)NCCN)cc4)ccc3c2n1CC(C)(C)O : < 4.70
CCOCc1nc2c(N)nc3cc(Cc4cccc(N5CCNCC5)c4)ccc3c2n1CC(C)(C)O : > 5.30
CCCCc1nc2c(N)nc3cc(Cc4cccc(CNC)c4)ccc3c2n1CC(C)(C)O : > 5.30
CCC[C@H](C)c1nc2c(N)nc3cc(Cc4ccccc4)ccc3c2n1CC(C)(C)OCCN : < 4.70
CCCC(C)c1nc2c(N)nc3cc(Cc4ccc(CCN)cc4)ccc3c2n1Cc1ccccc1 (centres unmarked) : 4.70 to 5.30
CCCC(C)c1nc2c(N)nc3cc(Cc4ccc(CCN)cc4)ccc3c2n1CC(C)(C)O (centres unmarked) : > 5.30

Q: Which pEC50 is reported for this molecule? CCCCc1nc2c(N)nc3cc(Cc4ccc(F)c(CN)c4)ccc3c2n1CC(C)(C)O
A: > 5.30

Q: Try this molecule next: CCOCc1nc2c(N)nc3cc(Cc4cc(CN)ccc4F)ccc3c2n1CC(C)(C)O
A: > 5.30

###

Listing of recorded EC50 by entry.
# system-under-test: hTLR8 (human Toll-like receptor 8) (Homo sapiens, UniProt Q9NR97)
# assay-name: hTLR8 cell assay (HEK-Blue hTLR8 reporter cells)
# assay-context: 24 hours, OD 650 nm

Example entries begin here.
CCCCc1nc2c(N)nc3cc(Cc4ccccc4CN)ccc3c2n1CC(C)(C)O [Compound 71] : < 5 µM
CCCCc1nc2c(N)nc3cc(Cc4ccccc4)ccc3c2n1CC(C)(C)OCCN [Compound 31] : < 5 µM
CCOCc1nc2c(N)nc3cc(Cc4ccc(CCN)cc4)ccc3c2n1CCNS(C)(=O)=O [Compound 34] : > 20 µM
CCOCc1nc2c(N)nc3cc(Cc4ccc(CN)s4)ccc3c2n1CC(C)(C)O [Compound 147] : < 5 µM
CCC[C@@H](C)c1nc2c(N)nc3cc(Cc4ccccc4)ccc3c2n1CC(C)(C)OCCN [Compound 30] : < 5 µM

Q: Which value of EC50 has been reported for CCCCc1nc2c(N)nc3cc(Cc4ccc(CCCN)cc4)ccc3c2n1CC(C)(C)O [Compound 15] in the records?
A: < 5 µM

Q: Now try CCOCc1nc2c(N)nc3cc(Cc4ccc(CCN)cc4)ccc3c2n1CC(C)(C)OCCNC(=O)C(C)C [Compound 22] .
A: > 20 µM

Q: Also need CCOCc1nc2c(N)nc3cc(Cc4cccc(C(=O)NCCN)c4)ccc3c2n1CC(C)(C)O [Compound 151] , thanks.
A: < 5 µM

###

# system-under-test: hTLR8 (human Toll-like receptor 8) (Homo sapiens, UniProt Q9NR97)
# Construct: host or cells: HEK-Blue hTLR8 (HEK293-derived reporter cells)
# Sequence (Q9NR97 27-1041): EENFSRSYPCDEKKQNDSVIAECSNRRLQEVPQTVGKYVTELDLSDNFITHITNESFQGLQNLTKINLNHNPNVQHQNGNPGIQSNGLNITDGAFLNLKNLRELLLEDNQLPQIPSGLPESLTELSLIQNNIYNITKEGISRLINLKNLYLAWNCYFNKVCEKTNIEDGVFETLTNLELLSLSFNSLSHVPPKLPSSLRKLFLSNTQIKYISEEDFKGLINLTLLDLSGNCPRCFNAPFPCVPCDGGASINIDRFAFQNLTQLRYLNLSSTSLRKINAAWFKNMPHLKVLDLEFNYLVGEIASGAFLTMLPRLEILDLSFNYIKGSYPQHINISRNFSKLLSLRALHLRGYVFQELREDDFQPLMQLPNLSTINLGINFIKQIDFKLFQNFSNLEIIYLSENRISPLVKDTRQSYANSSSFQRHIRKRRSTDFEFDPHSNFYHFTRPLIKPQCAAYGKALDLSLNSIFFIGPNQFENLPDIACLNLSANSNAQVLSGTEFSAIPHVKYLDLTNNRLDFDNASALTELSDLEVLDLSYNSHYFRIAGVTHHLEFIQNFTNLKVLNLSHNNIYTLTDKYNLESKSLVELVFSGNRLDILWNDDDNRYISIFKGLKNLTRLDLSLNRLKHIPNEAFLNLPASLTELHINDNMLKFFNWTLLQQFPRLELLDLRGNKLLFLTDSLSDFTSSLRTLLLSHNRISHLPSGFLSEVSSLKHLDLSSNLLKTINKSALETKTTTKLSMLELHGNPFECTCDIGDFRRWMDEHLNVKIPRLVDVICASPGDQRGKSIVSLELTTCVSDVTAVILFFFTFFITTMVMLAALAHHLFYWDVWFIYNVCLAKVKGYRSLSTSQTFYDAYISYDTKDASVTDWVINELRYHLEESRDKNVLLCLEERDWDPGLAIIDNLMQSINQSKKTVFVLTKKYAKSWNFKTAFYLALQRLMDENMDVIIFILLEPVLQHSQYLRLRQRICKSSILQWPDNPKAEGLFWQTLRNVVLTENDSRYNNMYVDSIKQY
# assay-name: hTLR8 cell assay (HEK-Blue hTLR8 reporter cells)
# Assay type: cell-based
# assay-context: 24 hours, OD 650 nm
Property: EC50; scope: individual molecules

Recorded EC50, per entry:
CCCCc1nc2c(N)nc3cc(Cc4ccc5c(c4)CCNC5)ccc3c2n1CC(C)(C)O : < 5 µM
CC(C)(O)Cn1c(COCC(F)(F)F)nc2c(N)nc3cc(Cc4cccc(CN)c4)ccc3c21 : < 5 µM
CCOCc1nc2c(N)nc3cc(Cc4ccc(CC(N)=O)cc4)ccc3c2n1CC(C)(C)O : > 20 µM
CCCCc1nc2c(N)nc3cc(Cc4cccc(N5CCNCC5)c4)ccc3c2n1CC(C)(C)O : < 5 µM
CCOCc1nc2c(N)nc3cc(Cc4ccccc4)ccc3c2n1CCCCN : 5 to 20 µM
CCOCc1nc2c(N)nc3cc(Cc4ccccc4)ccc3c2n1CC1(OCCN)CC1 : < 5 µM
CCCC(C)c1nc2c(N)nc3cc(Cc4cccc(CCCN)c4)ccc3c2n1CC(C)(C)O (centres unmarked) : 5 to 20 µM

Here is the next item to consider.
Q: hTLR8 (human Toll-like receptor 8) (Homo sapiens, UniProt Q9NR97) / EC50 / CCCCc1nc2c(N)nc3cc(Cc4cccc(OCCN)c4)ccc3c2n1CC(C)(C)O : value?
A: < 5 µM

###

# system-under-test: hTLR8 (human Toll-like receptor 8) (Homo sapiens)
# Sequence (Q9NR97 27-1041): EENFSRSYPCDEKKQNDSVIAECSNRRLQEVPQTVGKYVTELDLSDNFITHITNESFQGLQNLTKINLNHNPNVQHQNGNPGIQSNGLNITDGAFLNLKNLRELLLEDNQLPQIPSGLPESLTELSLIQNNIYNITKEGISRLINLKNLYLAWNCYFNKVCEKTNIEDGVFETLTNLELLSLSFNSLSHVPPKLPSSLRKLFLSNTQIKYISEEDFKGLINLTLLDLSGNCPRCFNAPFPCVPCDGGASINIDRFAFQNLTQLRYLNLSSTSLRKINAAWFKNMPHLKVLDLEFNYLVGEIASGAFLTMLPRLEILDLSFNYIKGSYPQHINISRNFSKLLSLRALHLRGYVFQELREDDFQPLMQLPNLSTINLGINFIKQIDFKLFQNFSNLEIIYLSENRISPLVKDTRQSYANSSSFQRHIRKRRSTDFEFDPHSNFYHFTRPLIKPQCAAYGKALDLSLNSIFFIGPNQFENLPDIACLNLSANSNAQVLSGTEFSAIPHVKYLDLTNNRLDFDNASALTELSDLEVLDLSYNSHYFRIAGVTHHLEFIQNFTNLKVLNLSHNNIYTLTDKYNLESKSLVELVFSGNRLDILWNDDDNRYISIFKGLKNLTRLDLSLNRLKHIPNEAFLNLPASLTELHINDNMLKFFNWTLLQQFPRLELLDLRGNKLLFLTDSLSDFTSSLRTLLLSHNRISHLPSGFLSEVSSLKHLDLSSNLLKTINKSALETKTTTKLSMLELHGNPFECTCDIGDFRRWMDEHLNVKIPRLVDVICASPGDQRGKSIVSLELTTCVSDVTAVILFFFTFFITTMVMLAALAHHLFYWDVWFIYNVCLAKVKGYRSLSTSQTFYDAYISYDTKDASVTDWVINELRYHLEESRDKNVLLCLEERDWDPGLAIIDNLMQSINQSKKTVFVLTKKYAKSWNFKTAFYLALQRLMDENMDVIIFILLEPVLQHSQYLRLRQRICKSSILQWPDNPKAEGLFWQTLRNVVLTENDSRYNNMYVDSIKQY
# assay-name: hTLR8 cell assay (HEK-Blue hTLR8 reporter cells)
# assay-context: 24 hours, OD 650 nm
metric-name: EC50

Recorded results for 5 compounds are shown here.
CCCCc1nc2c(N)nc3cc(C(C)c4cccc(CN)c4)ccc3c2n1CC(C)(C)O (stereo not drawn) [Compound 56] : < 5 µM
CCCCc1nc2c(N)nc3cc(Cc4cccc(CN)c4)ccc3c2n1CC(C)(C)O [Compound 16] : < 5 µM
CCOCc1nc2c(N)nc3cc(Cc4ccc(CCN)cc4)ccc3c2n1CC(C)(C)OCCNC(=O)C(C)(C)N [Compound 21] : > 20 µM
CCCCc1nc2c(N)nc3cc(Cc4ccc(C(C)(C)CN)cc4)ccc3c2n1CC(C)(C)O [Compound 70] : < 5 µM
CCCCc1nc2c(N)nc3cc(Cc4cc(CN)ccc4F)ccc3c2n1CC(C)(C)O [Compound 67] : < 5 µM

Q: Form: Entry = CCCC(C)c1nc2c(N)nc3cc(Cc4cccc(CN)c4)ccc3c2n1CC(C)(C)O (stereo not drawn) [Compound 12] | System = hTLR8 (human Toll-like receptor 8) (Homo sapiens) | EC50 = ____
A: < 5 µM

Q: Query CCOCc1nc2c(N)nc3cc(Cc4ccc(CCN(C)C)cc4)ccc3c2n1CC(C)(C)OCCN [Compound 24] next
A: > 20 µM

Q: Record: CCCCc1nc2c(N)nc3cc(Cc4cccc(CCCN)c4)ccc3c2n1CC(C)(C)O [Compound 18]
A: 5 to 20 µM

Q: Then CCCCc1nc2c(N)nc3cc(Cc4cccc(C(=O)NCCN)c4)ccc3c2n1CC(C)(C)O [Compound 64] ?
A: < 5 µM

Q: One more compound: CCOCc1nc2c(N)nc3cc(Cc4ccccc4)ccc3c2n1CC(C)(C)OCCCN [Compound 33]
A: 5 to 20 µM

Q: Repeat with CCOCc1nc2c(N)nc3cc(Cc4cccc(CCN)c4)ccc3c2n1CC(C)(C)O [Compound 5]
A: 5 to 20 µM

Q: How about CCOCc1nc2c(N)nc3cc(Cc4ccccc4)ccc3c2n1CC(C)(C)NCCCN [Compound 36] ?
A: > 20 µM

Where these numbers come from: patent US20250325687A1
